- Test system: MOLM14;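 also: after 48 h exposure read by CellTiter-Glo luminescence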
- Assay comment: cell viability relative to vehicle control; higher = less cytotoxic
- Conditions used: 10 µM; SRSF2 genotype: SRSF2 wt/wt
# T = cell viability below 90% (exclusive); F = cell viability at/above 90%

Compound	Qualitative label
Nc1ccc(Cl)cc1C(=O)C(F)(F)F [4-Chloro-2-(trifluoroacetyl)aniline hydrochl]	F
Nc1nc2c(ncn2COC(CO)CO)c(=O)[nH]1 [Ganciclovir]	F
Nc1nc2n[nH]nc2c(=O)[nH]1 [Azaguanine-8]	T
CCCCC(=O)O[C@]1(C(=O)CO)[C@@H](C)C[C@H]2[C@@H]3CCC4=CC(=O)C=C[C@]4(C)[C@@]3(F)[C@@H](O)C[C@@]21C [Betamethasone valerate (Betnovate)]	F
C[C@]1(O)C[C@@H](c2nc(-c3ccc4ccc(-c5ccccc5)nc4c3)c3c(N)nccn32)C1 [OSI-906 (Linsitinib)]	T

This collection of values is drawn from the supplement of paper PMC10981050.
